In this section we review reported TGI values for a set of compounds.
tested on: NCI-H226 lung; experiment: NCI tumour cell line growth inhibition, 48 h
Numbers only here, please. The scale is µM.

O=C(Cc1ccc(Nc2ccnc(C(F)(F)F)c2)cc1)Nc1cc(Cl)ccc1O    32.3
Cc1ccc(-c2cc(-c3ccc(C)cc3)nc(N3CCN(CCNc4ccnc5cc(Cl)ccc45)CC3)n2)cc1    18.1
Cn1nc2ccc3nccc(NCCNCCO)c3c2n1    85.8

Now examine the next entry.
Inquiry: Give the reported TGI for this compound. "O=C(c1ccccc1)c1c(C(F)(F)F)n([O-])c2cc(F)c(F)cc2[n+]1=O"
Reply text: 5.69

* * *

tested on: CAKI-1 renal; assay: NCI tumour cell line growth inhibition, 48 h
Assay metric: TGI (µM)
Numbers only here, please. The scale is µM.

CC(C)=CCC[C@@H](C)C1=CC(=O)C(C)=C(O)C1=O    10.5
COc1cnc2c(c1)C(=O)c1c-2n(CCCNCCN2CCOCC2)c(=O)c2cc([N+](=O)[O-])ccc12    7.31
COc1cc(-c2nc(-c3ccc(-c4nc5ccc(F)cc5[nH]4)cc3)no2)cc(OC)c1OC    9.13
Fc1cccc(Cl)c1Cn1c(-c2c(F)cccc2Cl)nc2ccccc21    47.5
Cc1ccc2nc3c(n2c1)C(=O)C(=O)c1ccccc1-3    2.71

Inquiry: Give the reported TGI for this compound. "Nc1nc(-c2ccc(Cl)cc2)cc(-c2ccc(Cl)cc2)c1-c1nc2ccccc2o1"
Reply text: 35.9

* * *

In this section we review reported TGI values for a set of compounds.
tested on: DMS 114 small cell lung; assay: NCI tumour cell line growth inhibition, 48 h

Here's what some known entries look like.
CCOc1ccc(NCC2CC/C(=C\c3ccc(Cl)cc3)C2=O)cc1 (stereo not drawn)    > 58.9 µM
Cn1cnc(SC2=C3C(=O)C=C4S[C@H]5C[C@]42c2c(c(O)c4c6c2=[N+]3CCC=6C=N4)N5)c1CC(N)C(=O)O (stereo partly drawn)    6.11 µM
CC(C)CN1CC(C)C(=O)NC1=O (stereo not drawn)    > 100 µM
CN(C)C(=S)/N=c1\ss/c(=N\C(=S)N(C)C)n1Cc1ccco1    > 100 µM
CC#CC#C/C=C1\C=CC2(OC=CC2OC(C)=O)O1 (stereo not drawn)    45.6 µM
COc1cc2c(c(OC)c1OC)-c1ccc(SC)c(=O)cc1[C@@H](NC(=O)c1ccc([N+](=O)[O-])cc1)CC2    0.89 µM

Now examine the next entry.
Inquiry: Give the reported TGI for this compound. "CCCC(=O)c1ccc(=O)n(C)c1"
Reply text: > 100 µM

* * *

In this section we review reported TGI values for a set of molecules.
system: OVCAR-3 ovarian; test: NCI tumour cell line growth inhibition, 48 h

COc1ccc(/C=N\NC(=O)c2ccc3nc(-c4ccc(Cl)cc4)[nH]c3c2)cc1    5.14 µM
CC[C@H]1CN(C)[C@H]2Cc3c([nH]c4ccccc34)C(=O)C[C@H]1C2C(=O)OC (stereo not given in full)    > 100 µM
CC(C)C1=C(Cc2ccccc2)C(=O)O/C1=C\c1ccc(O)c(Cl)c1    28 µM

Inquiry: Give the reported TGI for this molecule. "COc1ccc(N2N=NN(C(C)C)/C2=C(/Cl)c2nnnn2-c2ccc(OC)cc2)cc1"
Reply text: 24.5 µM

Inquiry: Give the reported TGI for this molecule. COc1ccc(OC(C)C(=O)O)c2c1CCCC2=O (stereo not given)
Reply text: > 100 µM

Inquiry: Give the reported TGI for this molecule. "COc1cc(O)cc(O)c1C(=O)CC(Cl)(Cl)Cl"
Reply text: > 100 µM

Inquiry: Give the reported TGI for this molecule. "CC(=O)OCCOCNC(=S)N/N=C(\C)c1cccs1"
Reply text: > 100 µM

Inquiry: Give the reported TGI for this molecule. "Cc1ccc(NC(=O)/C(=N/NC(=O)C[N+](C)(C)C)c2nc3ccccc3[nH]c2=O)cc1"
Reply text: > 100 µM

* * *

system: HS 578T breast; assay: NCI tumour cell line growth inhibition, 48 h
In this section we review reported GI50 values for a set of compounds.

COc1cc(/C(=C2/O[C@@H]([C@H]3COC(C)(C)O3)[C@H]3OC(C)(C)O[C@@H]23)c2ccc3c(c2)OCO3)cc(OC)c1OC    > 25 µM
COc1cnc2c(c1)C(=O)c1c-2n(CCCNCCN2CCOCC2)c(=O)c2cc([N+](=O)[O-])ccc12    3.85 µM
COc1ccc(-n2cc(-c3cc(OC)c(OC)c(OC)c3)[nH]c2=S)cc1Cl    17.5 µM

Inquiry: Give the reported GI50 for this compound. "CCCCCCCCCCC[C@@H](C[C@H]1OC(=O)[C@H]1CCCCCC)OC(=O)[C@@H](CC(C)C)NC=O"
Reply text: 3.81 µM

* * *

test system: SF-539 CNS; test: NCI tumour cell line growth inhibition, 48 h
In this section we review reported TGI values for a set of molecules.

CC(=O)Nc1ccc(-c2csc(Nc3cccc(-c4csc(-c5ccccc5)n4)c3)n2)cc1    > 50 µM
O=C(Nc1ccc(Sc2ccc(N=Nc3c(O)c(S(=O)(=O)O)cc4cc(S(=O)(=O)O)ccc34)cc2)cc1)c1ccc(N=Nc2c(O)c(S(=O)(=O)O)cc3cc(S(=O)(=O)O)ccc23)cc1    > 100 µM
O=Cc1c(Br)[nH]c2ccccc12    > 100 µM
COc1ccc(N2C(=O)C3c4[nH]c5ccccc5c4C4c5ccccc5CC4C3C2=O)cc1 (stereo not given)    > 100 µM
O=C(c1ccco1)c1nc2cc(C(F)(F)F)ccc2[n+]([O-])c1C(F)(F)F    > 100 µM

Inquiry: Give the reported TGI for this molecule. "Fc1ccc([C@@H]2CCNC[C@H]2COc2ccc3c(c2)OCO3)cc1"
Reply text: 25.6 µM

Inquiry: Give the reported TGI for this molecule. "COc1cc(-c2nc(-c3ccc(-c4nc5ccc(F)cc5[nH]4)cc3)no2)cc(OC)c1OC"
Reply text: 18.7 µM

Inquiry: Give the reported TGI for this molecule. OCC(O)COc1c(Cl)cc(Cl)cc1Cl (stereo not given)
Reply text: > 100 µM

Inquiry: Give the reported TGI for this molecule. O=c1ccn(C2(CO)C=C(CO)C(O)C2O)c(=O)[nH]1 (stereo not given)
Reply text: > 25.7 µM

Inquiry: Give the reported TGI for this molecule. "Nc1ccccc1OCCCOc1ccccc1N"
Reply text: > 100 µM

* * *

In this section we review reported TGI values for a set of compounds.
tested on: MDA-MB-231 breast; assay: NCI tumour cell line growth inhibition, 48 h

OC(C1CCCCCCCCCC1)C(O)C1CCCCCCCCCC1 (configuration not stated)    > 100 µM
Cc1ccc2nc3c(n2c1)C(=O)C(=O)c1ccccc1-3    3.07 µM
CN(C)C=NCC(O)c1ccccc1 (configuration not stated)    > 100 µM

Inquiry: Give the reported TGI for this compound. CCOC(=O)C1=C(c2ccccc2)C12N(Cc1ccccc1)C(=O)C2(c1ccccc1)c1ccccc1 (configuration not stated)
Reply text: > 100 µM

Inquiry: Give the reported TGI for this compound. "CCC(=O)N1C(=O)C(CC)(CC)C(=O)N1C(=O)CC"
Reply text: > 100 µM

Inquiry: Give the reported TGI for this compound. "CCCCOc1ccc2c(c1)CC[C@@H]1[C@@H]2CC[C@]2(C)C(=O)N(CCCC)C(=O)C[C@@H]12"
Reply text: > 100 µM

Inquiry: Give the reported TGI for this compound. "C[C@@H](Oc1cc(-n2cnc3ccc(OCC4CCN(C)CC4)cc32)sc1C(N)=O)c1ccccc1Cl"
Reply text: 2.15 µM

Inquiry: Give the reported TGI for this compound. "CN(/N=C/c1ccc(Cl)cc1)C1=NCCCCN1"
Reply text: > 100 µM

Inquiry: Give the reported TGI for this compound. CCOC(=O)C(NC(=O)CC)(Nc1ccc(S(=O)(=O)Nc2ccc(OC)nn2)cc1)C(F)(F)F (configuration not stated)
Reply text: > 100 µM

Inquiry: Give the reported TGI for this compound. "NC(=O)c1sc(-n2cnc3ccc(C(F)(F)F)cc32)cc1OCc1ccccc1Br"
Reply text: 19.3 µM

Inquiry: Give the reported TGI for this compound. CCOC1NC(/N=C/c2ccc(OC)cc2)=C(C#N)C1C#N (configuration not stated)
Reply text: > 100 µM

Inquiry: Give the reported TGI for this compound. "O=C1CCCCN1C(=O)c1ccc([N+](=O)[O-])cc1"
Reply text: > 100 µM

Inquiry: Give the reported TGI for this compound. "O=C(N[C@H]1CCC[C@H]1C(=O)Nc1ccc(C(F)(F)F)cc1)OCc1ccccc1"
Reply text: > 100 µM

* * *

tested on: ACHN renal; assay: NCI tumour cell line growth inhibition, 48 h; in the data active means GI50 below about 0.43 µM; inactive means the rest
Give one outcome, nothing more. List: active, inactive

Use the examples below as a reference point.
C=C(C)[C@@H]1CC[C@]2(C(=O)O)CC[C@]3(C)[C@H](CC[C@@H]4[C@@]5(C)C/C(=C/c6cccc(I)c6)C(=O)C(C)(C)[C@@H]5CC[C@]43C)[C@@H]12    inactive
O=C1/C(=C/c2ccc(Cl)cc2)CN(C(=O)CCN2CCC(=NO)CC2)C/C1=C\c1ccc(Cl)cc1    inactive
O=c1c2c(=NCCN3CCCC3)cc3c(=O)n(CCCN4CCOCC4)c(=O)c4ccc(c(O)n1CCCN1CCOCC1)c2c4-3    active

Inquiry: Called result for "CC(C)C[CH2][Ge]([CH2]CC(C)C)([CH2]CC(C)C)[CH2]CC(C)C"
Reply text: inactive
